Ref: ChEMBL document CHEMBL1629525

IC50 values by entry
- tested-on: UniProt:P31422
- Sequence (P31422 whole entry): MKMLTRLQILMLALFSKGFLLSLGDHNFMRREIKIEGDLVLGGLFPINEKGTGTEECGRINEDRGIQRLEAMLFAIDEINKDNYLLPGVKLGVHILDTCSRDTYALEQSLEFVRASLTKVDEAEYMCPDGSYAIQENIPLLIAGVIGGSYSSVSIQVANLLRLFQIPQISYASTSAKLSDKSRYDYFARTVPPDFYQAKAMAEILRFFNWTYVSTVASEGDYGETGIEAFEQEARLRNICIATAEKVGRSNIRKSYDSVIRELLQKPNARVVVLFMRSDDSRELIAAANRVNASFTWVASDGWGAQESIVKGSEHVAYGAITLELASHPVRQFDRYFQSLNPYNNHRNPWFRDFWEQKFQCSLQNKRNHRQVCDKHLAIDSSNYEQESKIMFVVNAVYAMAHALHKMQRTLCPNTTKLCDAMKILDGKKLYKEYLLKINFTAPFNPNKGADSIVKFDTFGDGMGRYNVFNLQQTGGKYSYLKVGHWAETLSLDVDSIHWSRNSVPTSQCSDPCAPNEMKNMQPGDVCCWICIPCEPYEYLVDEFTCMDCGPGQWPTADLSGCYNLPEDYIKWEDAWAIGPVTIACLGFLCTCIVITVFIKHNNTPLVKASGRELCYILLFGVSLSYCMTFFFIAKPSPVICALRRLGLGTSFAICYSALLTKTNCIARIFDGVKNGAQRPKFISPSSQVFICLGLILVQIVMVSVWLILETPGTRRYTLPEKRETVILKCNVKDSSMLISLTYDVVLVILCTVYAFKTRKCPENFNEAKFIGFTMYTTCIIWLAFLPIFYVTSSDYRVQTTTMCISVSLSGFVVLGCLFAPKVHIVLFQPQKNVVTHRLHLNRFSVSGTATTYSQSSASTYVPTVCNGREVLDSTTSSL
- experiment-summary: Antagonist activity at rat mGluR3 receptor expressed in CHO cells assessed as inhibition of GIRK current
Please reply with the bare figure in nM and do not write the unit itself.

molecular_string=Cc1cc(-c2cccc(C3=Nc4ccc(C(F)(F)F)cc4NC(=O)C3)c2)ccn1 quantity=IC50 measured=17

Looking up Cc1cc(-c2cccc(C3=Nc4cc(C)c(C(F)(F)F)cc4NC(=O)C3)c2)ccn1 , I see its IC50 listed as 14

---

IC50 values by entry
- tested-on: Metabotropic glutamate receptor 2 (Rattus norvegicus, UniProt P31421)
- Sequence (P31421 whole entry): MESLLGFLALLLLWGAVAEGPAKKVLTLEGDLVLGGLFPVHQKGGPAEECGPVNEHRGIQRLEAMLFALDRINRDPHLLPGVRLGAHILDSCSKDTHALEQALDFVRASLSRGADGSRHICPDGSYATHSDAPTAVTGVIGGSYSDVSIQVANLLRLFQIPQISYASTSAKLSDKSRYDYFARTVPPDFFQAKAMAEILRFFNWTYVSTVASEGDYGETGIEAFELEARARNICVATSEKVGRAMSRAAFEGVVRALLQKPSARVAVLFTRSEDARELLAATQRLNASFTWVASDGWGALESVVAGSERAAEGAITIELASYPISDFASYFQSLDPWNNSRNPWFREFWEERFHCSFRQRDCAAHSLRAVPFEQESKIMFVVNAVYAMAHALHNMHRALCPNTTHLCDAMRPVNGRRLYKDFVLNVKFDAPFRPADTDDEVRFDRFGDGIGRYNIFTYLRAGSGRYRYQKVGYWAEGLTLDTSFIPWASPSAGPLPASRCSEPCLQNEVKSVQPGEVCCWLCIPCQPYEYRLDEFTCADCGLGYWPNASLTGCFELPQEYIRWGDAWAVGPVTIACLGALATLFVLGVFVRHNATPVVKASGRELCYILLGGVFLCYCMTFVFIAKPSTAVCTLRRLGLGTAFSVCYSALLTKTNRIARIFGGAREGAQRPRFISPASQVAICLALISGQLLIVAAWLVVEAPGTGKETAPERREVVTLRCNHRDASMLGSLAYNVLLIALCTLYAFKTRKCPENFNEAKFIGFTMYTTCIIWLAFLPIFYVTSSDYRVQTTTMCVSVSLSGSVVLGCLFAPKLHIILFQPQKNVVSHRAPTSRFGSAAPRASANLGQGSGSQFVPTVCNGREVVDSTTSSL
- experiment-summary: Antagonist activity at recombinant rat mGluR2 expressed in forskolin-stimulated CHO cells assessed as inhibition of (1S,3R)-ACPD induced cAMP production
- Type: functional, cell-based
Please reply with the bare figure in nM and do not write the unit itself.

Solved entries (count: 6):
molecular_string=O=C1CC(c2cccc(-c3ccncc3)c2)=Nc2ccc(C(F)(F)F)cc2N1 measured=26
molecular_string=Cc1cc2c(cc1C(F)(F)F)NC(=O)CC(c1cccc(-c3ccncn3)c1)=N2 measured=50
molecular_string=Cc1cc(-c2cccc(C3=Nc4cc(C)c(C(F)(F)F)cc4NC(=O)C3)c2)cc(C)n1 measured=3
molecular_string=Cc1cc2c(cc1C(F)(F)F)NC(=O)CC(c1cccc(-c3cnccn3)c1)=N2 measured=16
molecular_string=Cc1cc(-c2cccc(C3=Nc4cc(C)c(C(F)(F)F)cc4NC(=O)C3)c2)ccn1 measured=4
molecular_string=Cc1cc2c(cc1C(F)(F)F)NC(=O)CC(c1cccc(-c3ccncc3)c1)=N2 measured=11

Looking up CCc1cc(-c2cccc(C3=Nc4cc(C)c(C(F)(F)F)cc4NC(=O)C3)c2)cc(C)n1 , I see its IC50 listed as 4

Looking up COCc1cc(-c2cccc(C3=Nc4cc(C)c(C(F)(F)F)cc4NC(=O)C3)c2)cc(C)n1 , I see its IC50 listed as 5

---

- experiment-summary: Clearance in rat at 2.5 mg/kg, iv
- Format: ADME, organism-based
- Design: dose 2.5 mg/kg, route intravenous
- protocol-conditions: in vivo
quantity: clearance (mL/min/kg)
Please reply with the bare figure in mL/min/kg and do not write the unit itself.

Looking up Cc1cc(-c2cccc(C3=Nc4cc(C)c(C(F)(F)F)cc4NC(=O)C3)c2)cc(C)n1 , I see its clearance listed as 5.7

---

- tested-on: Metabotropic glutamate receptor 2 (Rattus norvegicus, UniProt P31421)
- experiment-summary: Partial displacement of [3H]LY354740 from recombinant rat mGluR2
Records here are stratified by IC50; strata: category 1: < 8 nM; category 2: ≥ 8 nM and < 20 nM; category 3: ≥ 20 nM

Known results for molecules:
molecular_string=O=C1CC(c2cccc(-n3ccnn3)c2)=Nc2ccc(-c3ccccc3F)cc2N1 category="category 2"
molecular_string=Cc1nc(-c2cccc(C3=Nc4ccc(C(F)(F)F)cc4NC(=O)C3)c2)co1 category="category 3"

Input: Form: Item = Cn1nccc1-c1cccc(C2=Nc3ccc(C(F)(F)F)cc3NC(=O)C2)c1 ; Class = ?
Output: category 3

Input: Form: Item = Cc1cc(-c2cccc(C3=Nc4cc(C(F)(F)F)c(C(F)(F)F)cc4NC(=O)C3)c2)cc(C)n1 ; Class = ?
Output: category 1

Input: Form: Item = Cc1cc2c(cc1C(F)(F)F)NC(=O)CC(c1cccc(-c3ccncc3)c1)=N2 ; Class = ?
Output: category 1

Input: Form: Item = Cc1cc2c(cc1C(F)(F)F)NC(=O)CC(c1cccc(-c3ccnc(C#N)c3)c1)=N2 ; Class = ?
Output: category 2

Input: Form: Item = Cc1cc2c(cc1C(F)(F)F)NC(=O)CC(c1cccc(-c3ccnc(C(C)C)c3)c1)=N2 ; Class = ?
Output: category 1
